Assay: Volume of distribution at steady state in mouse at 1 mg/kg, iv
Format: ADME, organism-based
Conditions: in vivo, read-out: Vdss
endpointLabel: Vd (L/kg)
Only the number, expressed in L/kg, is required.

{"recordSmiles": "CC(C)(O)[C@H]1CC[C@H](NC(=O)c2cnc3cc(C4CC4)ncc3c2)CC1", "endpointLabel": "Vd", "unitsLabel": "L/kg", "observedResult": 1.6}
{"recordSmiles": "CC(C)(O)[C@H]1CC[C@H](NC(=O)c2cnc3cc(OC(F)F)ccc3c2)CC1", "endpointLabel": "Vd", "unitsLabel": "L/kg", "observedResult": 1.7}

We now examine a further molecule.
Asked: Please report the measured Vd for CC(C)(O)[C@H]1CC[C@H](NC(=O)c2cnc3nc(C4CC4)ccc3c2)CC1
Given back: 1.6
